- System: hind limb tonic extensor component of the audiogenic seizure
- TEST_SUMMARY: Audiogenic seizure test in mice (5-day chronic administration)
- Format: in vivo, male O'Grady strain mice
- REPORTED_CONDITIONS: Mus musculus; mice, oral, fifth day, 4 hr post drug administration; read-out: Five day chronic audiogenic seizure test ED50 4 hr
- Text: In this test, male O'Grady strain mice (14-16 grams) especially bred for susceptibility to audiogenic seizures were used as subjects. The audiogenic seizure apparatus consisted of a wooden box enclosing a metal container with two doorbells attached to the upper section. The test consisted of administering the test drug orally as a suspension in 10% olive oil and 90% Methocel (0.5%) to ten animals per dose. […] The test drugs included the present compound, DMHP, DPH, Δ^9 -THC and Phenobarbital. […]
Structures can show the parent of a compound that is named as a salt.
PROPERTY_MEASURED: ED50 (mg/kg)
Report the figure in mg/kg without appending any unit label.

MOLECULE	ED50 [mg/kg]
CCC1(c2ccccc2)C(=O)NC(=O)NC1=O [Phenobarbital]	0.1
CCCCCC(C)C(C)c1cc(OC(=O)CCCN2CCCCCC2)c2c(c1)OC(C)(C)C1=C2CC(C)CC1 (stereo not shown) [Present compound, hydrochloride]	0.7

Here is another molecule to look at.
Ask: Suppose we examine the molecule CCCCCC(C)C(C)c1cc(O)c2c(c1)OC(C)(C)C1=C2CC(C)CC1 (stereo not shown) [DMHP] ; what ED50 value has been reported?
Reply: 1.6

---

- System: hind limb tonic extension seizure (supramaximal electroshock)
- TEST_SUMMARY: Supramaximal electroshock seizures in rats (single oral dose)
- Type: in vivo, male Long-Evans rats
- REPORTED_CONDITIONS: Rattus norvegicus; rats, single oral dose, 1 hr; read-out: 1 hr ED50 (50% of animals protected from hindlimb tonic extension)
- Excerpt: In this test, male Long-Evans rats (170-190 grams) were orally administered the test drugs as a suspension in olive oil and Methocel 0.5% to 5 or 10 animals per dose. At one and four hours post drug administration each animal received an electroshock (150 milliamp for 0.2 seconds) through corneal electrodes to produce a hind limb tonic extension seizure. The animals were considered protected when the hind limb tonic extensor component was blocked.
Counter-ions that a name gives are not always drawn.
Each entry below carries its recorded ED50.
Please give a number only; it is taken to be in mg/kg.

COMPOUND	MEASURED_NUMBER
CCCCCc1cc(O)c2c(c1)OC(C)(C)C1CCC(C)=CC21 (single isomer, unassigned) [Δ9-THC]	53.3
CCC1(c2ccccc2)C(=O)NC(=O)NC1=O [Phenobarbital]	22

Ask: Return ED50 measured with hind limb tonic extension seizure (supramaximal electroshock) given this compound: CCCCCC(C)C(C)c1cc(O)c2c(c1)OC(C)(C)C1=C2CC(C)CC1 (centres unmarked) [DMHP]
Reply: 4.6

Ask: Query for hind limb tonic extension seizure (supramaximal electroshock): what ED50 does the record show for O=C1NC(=O)C(c2ccccc2)(c2ccccc2)N1 [DPH, diphenylhydantoin] ?
Reply: 23

Ask: Find the measured ED50: item CCCCCC(C)C(C)c1cc(OC(=O)CCCN2CCCCCC2)c2c(c1)OC(C)(C)C1=C2CC(C)CC1 (centres unmarked) [Present compound, hydrochloride] , target or system hind limb tonic extension seizure (supramaximal electroshock).
Reply: 60.6

---

- System: hind limb tonic extensor component of the audiogenic seizure
- TEST_SUMMARY: Audiogenic seizure in mice (tonic extensor component), single oral dose
- Assay type: in vivo, male O'Grady strain mice
- REPORTED_CONDITIONS: Mus musculus, po, 1 h, mice, single oral dose, 1 hr post drug administration; read-out: 1 hr ED50 (50% of animals protected from hindlimb tonic extension)
Where a name gives a salt, the structure may show the parent alone.
PROPERTY_MEASURED: ED50 (mg/kg)
Give the value in mg/kg but do not write mg/kg after it.

COMPOUND	TESTED_TARGET	UNITS_TEXT	ED50
O=C1NC(=O)C(c2ccccc2)(c2ccccc2)N1 [DPH, diphenylhydantoin]	hind limb tonic extensor component of the audiogenic seizure	mg/kg	1.7
CCC1(c2ccccc2)C(=O)NC(=O)NC1=O [Phenobarbital]	hind limb tonic extensor component of the audiogenic seizure	mg/kg	1.9
CCCCCC(C)C(C)c1cc(OC(=O)CCCN2CCCCCC2)c2c(c1)OC(C)(C)C1=C2CC(C)CC1 (centres unmarked) [Present compound, hydrochloride]	hind limb tonic extensor component of the audiogenic seizure	mg/kg	6.8
CCCCCc1cc(O)c2c(c1)OC(C)(C)C1CCC(C)=CC21 (single isomer, unassigned) [Δ9-THC]	hind limb tonic extensor component of the audiogenic seizure	mg/kg	5

Ask: Lab note: need ED50 for CCCCCC(C)C(C)c1cc(O)c2c(c1)OC(C)(C)C1=C2CC(C)CC1 (centres unmarked) [DMHP] on hind limb tonic extensor component of the audiogenic seizure, anyone have it?
Reply: 6.7
